target: T1, Ac-VQIINK-NH2 (SEQ ID NO: 23); assay: cell-based or functional assay
T1 sequence (peptide, N-terminal acetyl (Ac); C-terminal amide (NH2)): RLKIRW
Square brackets hold non-standard residues; d marks the D form. Ends that are not written are not given here. dCha = N[C@H](CC1CCCCC1)C(=O)O; dNle = CCCC[C@@H](N)C(=O)O
Experimental Endpoint: VQIINK Inhibition IC50 (µm)
Value expressed in µm; do not type the unit.

Here is how some binders turned out for VQIINK Inhibition IC50.
{"columns": ["Binder", "VQIINK Inhibition IC50 [µm]"],
 "data": [
  ["[dW][dR][dL][dK][dCha][dR][dW] (not fully specified; printed as wrlkbrw) [wrlkbrw]", 0.35],
  ["[dW][dR][dCha][dK][dCha][dR][dW] (not fully specified; printed as wrbkbrw) [wrbkbrw]", 0.77],
  ["[dNle][dK][dI][dR][dI][dH][dY] [ukirihy]", 1.12],
  ["[dW][dR][dNle][dK][dV][dR][dW] [wrukvrw]", 2.1],
  ["[dW][dR][dNle][dK][dNle][dR][dW] [wrukurw]", 1.73]
]}

Now let's try a different one.
[in] Recorded VQIINK Inhibition IC50 of [dL][dK][dNle][dR][dNle][dH][dY] [lkuruhy] , please.
[out] 0.87
